Test: RPL19A-GFP modulators, yeast TOR pathway, confirmation, cell-based, S. cerevisiae, flow cytometry, cherry picks, mother/daughter gates (AID 2270)
Conditions: S. cerevisiae RPL19A-GFP strain, 3 h, measured here: mother cell gate, at 10 µM, stronger effect = lower value, 100 = same GFP as DMSO wells
value.kind: GFP response vs DMSO (%)
One number for each entry, in %.

Would you mind giving GFP response vs DMSO for every molecule in the list below?
1. COc1ccc(/C=C/C(=O)C2C(=O)C=C(C)OC2=O)cc1O (stereo unspecified)
2. C=CCn1cc(/C=C/c2cc[n+](C)cc2)c2ccccc21

1: 101; 2: 103

Would you mind giving GFP response vs DMSO for every molecule in the list below?
1. O=C1C(CSCc2ccccc2)NC(=S)N1c1ccccc1 (stereo unspecified)
2. CCn1c(=O)c(C(=O)Nc2ccsc2C(=O)OC)c(O)c2ccccc21
3. Cc1nnc(NC(=O)c2nc(S(=O)(=O)Cc3ccccc3C)ncc2Cl)s1
4. O=c1cc(-c2c(F)c(F)c(F)c(F)c2F)oc2c(F)c(F)c(F)c(F)c12
5. O=C(O)CCC(=O)Nc1ccc(S(=O)(=O)c2ccc(NC(=O)CCC(=O)O)cc2)cc1

101
103
94.4
101
97.7

Would you mind giving GFP response vs DMSO for every molecule in the list below?
1. Cc1c(N2C(=O)/C(=C\c3ccccc3O)SC2=S)c(=O)n(-c2ccccc2)n1C
2. O=[N+]([O-])c1cccc(-c2ccc(/C=N/Nc3nc(N4CCCCC4)nc(N4CCCCC4)n3)o2)c1
3. O=C(NCc1ccc2c(c1)OCO2)c1nc(S(=O)(=O)Cc2ccccc2)ncc1Cl

1. 98.3
2. 98.2
3. 97.4

Would you mind giving GFP response vs DMSO for every molecule in the list below?
1. COc1cc(-c2nc3ccccn3c2NCC2CCCO2)ccc1O (stereo unspecified)
2. S=c1[nH]nc(-c2ccco2)n1/N=C/C(Cl)=C/c1ccccc1

1: 102; 2: 98.3

Where do the numbers come from? From PubChem BioAssay.
